Target: OsWOX13 (Oryza sativa, UniProt Q5QMM3 1-267)
Sequence: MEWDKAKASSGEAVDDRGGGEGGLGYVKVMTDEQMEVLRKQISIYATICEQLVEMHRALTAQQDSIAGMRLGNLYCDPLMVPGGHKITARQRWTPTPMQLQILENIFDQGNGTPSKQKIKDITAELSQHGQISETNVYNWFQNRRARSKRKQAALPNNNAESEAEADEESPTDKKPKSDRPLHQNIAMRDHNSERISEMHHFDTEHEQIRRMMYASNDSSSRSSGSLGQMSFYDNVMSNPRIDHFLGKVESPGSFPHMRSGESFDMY
Assay: protein-binding microarray (RPBM); PBS, 2% BSA, 51.3 ng/ul salmon testes DNA, 50 uM zinc acetate, 200 nM TF, 25 C, 1 h; high values mean tight binding
Conditions: protein: recombinant; tags: N-terminal polyhistidine and DsRed monomer fusion (pET32a); label: CyDye5-dUTP incorporated in the synthesized complementary strand; 3' TTTTT single-stranded linker to array surface; dsDNA, one strand shown
Over roughly 35,000 sequences, “fluorescence intensity (a.u.)” has its median near 10,000; the highest 2% begin near 52,000. Many of the other results were omitted from the sample, so the highest values are more common in it than they were.

# RESIDUES, binding signal
data = [
    ("TATAATTGTTACTGTTAATTGAGGTGGGAAATACCAGGTGCGGAGTCACCTAGTGCAG", "53500 fluorescence intensity (a.u.)"),
    ("CAACACATGATTGCCGGGCTTTCTTCCCTCTCGTCCTGAGCGGAGTCACCTAGTGCAG", "32000 fluorescence intensity (a.u.)"),
    ("CTCCAATTCATCTATAATCAATCTAATAGCCAATTCATACCGGAGTCACCTAGTGCAG", "5900 fluorescence intensity (a.u.)"),
    ("CCAAGATGAATTGGAACTTTGCACACCAACCAAATAGGGGCGGAGTCACCTAGTGCAG", "3580 fluorescence intensity (a.u.)"),
    ("TAATGTGTGTGTATAATTAATTAAGCAGTGAAGTGAATCGCGGAGTCACCTAGTGCAG", "5650 fluorescence intensity (a.u.)"),
    ("TGGGATAATTAACTCGTAATGATCCCCAAATGCGTGCGTACGGAGTCACCTAGTGCAG", "28300 fluorescence intensity (a.u.)"),
    ("TAAATTTATAGTCAATTGTAGCATGAGCTCTAATAAACTGCGGAGTCACCTAGTGCAG", "4880 fluorescence intensity (a.u.)"),
    ("TCATGTCATAAATTAAATTATTTGAAATTATTTGGTACAGCGGAGTCACCTAGTGCAG", "13900 fluorescence intensity (a.u.)"),
    ("TCTAAACTGATAATTGCAAATTGTAATTGATAGCATTGAGCGGAGTCACCTAGTGCAG", "63700 fluorescence intensity (a.u.)"),
    ("ATGATAACTGATTGCAATAAGGTTAGGATGTTGTCACACCCGGAGTCACCTAGTGCAG", "52900 fluorescence intensity (a.u.)"),
    ("TTTAATTAATTTGTTAAATTTTCTGATCGGAATGAGCGGTCGGAGTCACCTAGTGCAG", "63700 fluorescence intensity (a.u.)"),
    ("TCATGTAATTGTTGATAAGAGTGTCAGAATTCAGATAGTGCGGAGTCACCTAGTGCAG", "13500 fluorescence intensity (a.u.)"),
    ("TTTTAAATTTCATTATATAATGATTAATTTGGGAATGAGGCGGAGTCACCTAGTGCAG", "30800 fluorescence intensity (a.u.)"),
    ("ATGAATCTAGTCAGATTGGCCAATTTGATTTGTTTTACTCCGGAGTCACCTAGTGCAG", "9360 fluorescence intensity (a.u.)"),
    ("TCCAAATCCTACAATAATTGATTGAATCAAACACAGAAAGCGGAGTCACCTAGTGCAG", "41200 fluorescence intensity (a.u.)"),
    ("TCTAATTAGTAAACTGTAGTAGTGAGCAAATTGTACTAGACGGAGTCACCTAGTGCAG", "20900 fluorescence intensity (a.u.)"),
    ("AGCAGCATAAATGCAATTAAATTTGTAGCAATCGAACATGCGGAGTCACCTAGTGCAG", "4680 fluorescence intensity (a.u.)"),
    ("GAGAAATGGTAATTTAGCATGCTTATATATTGAGGTTTAGCGGAGTCACCTAGTGCAG", "8510 fluorescence intensity (a.u.)"),
    ("CCCAAATAGAAGTAGAATTGAGACACTGAGTGGTGCAAAGCGGAGTCACCTAGTGCAG", "3400 fluorescence intensity (a.u.)"),
    ("TGAATATGTCCCAAATTAATTGTCACAATGGAGTACTAATCGGAGTCACCTAGTGCAG", "3200 fluorescence intensity (a.u.)"),
    ("TAATCATGTTAAATTGATGTTATTAGATTTATCATTAAACCGGAGTCACCTAGTGCAG", "14900 fluorescence intensity (a.u.)"),
    ("TGTTGCTGTTGATTAGCTCTCACCTAATTTGTTGTGTATGCGGAGTCACCTAGTGCAG", "18100 fluorescence intensity (a.u.)"),
    ("AATTTGATTGATTTTACTCTCGAGCCAATTGAGATGTCTGCGGAGTCACCTAGTGCAG", "64800 fluorescence intensity (a.u.)"),
    ("GAGTGGTAAATAATTAATTATTACATATTTGTATAAATCGCGGAGTCACCTAGTGCAG", "22800 fluorescence intensity (a.u.)"),
    ("AATTTAATCTTTAATTAATTTATTTCTCGCCTCTCTTAACCGGAGTCACCTAGTGCAG", "4610 fluorescence intensity (a.u.)"),
    ("ATGTAAATCAATTGTTTAGTGTTGGATCTATAAGCAACATCGGAGTCACCTAGTGCAG", "4370 fluorescence intensity (a.u.)"),
    ("ATTTGAATAATTAGGGAGTCTATGAACAGAAACATAGACCCGGAGTCACCTAGTGCAG", "6000 fluorescence intensity (a.u.)"),
    ("GGTTAATTTGACATAAACAGCGTCAGAAATGTAGTTCATGCGGAGTCACCTAGTGCAG", "57900 fluorescence intensity (a.u.)"),
    ("CCATCTGCTGATAGATTTTCTATTGCCAAATCTTACACCTCGGAGTCACCTAGTGCAG", "5710 fluorescence intensity (a.u.)"),
    ("ACTTACAAATTTTGTACTCAATTGAGATGTGCTTCGATTGCGGAGTCACCTAGTGCAG", "5640 fluorescence intensity (a.u.)"),
    ("GATGAACATTGATTTGCTCGGATCTTGGATGCTGTTTGTGCGGAGTCACCTAGTGCAG", "20800 fluorescence intensity (a.u.)"),
    ("ATATGATCGTATAATTAAATGAGATCATGATTAAGTGGAGCGGAGTCACCTAGTGCAG", "16400 fluorescence intensity (a.u.)"),
    ("TAAATTAATTAATTAGGTATAAATGTAATTAAGCACATCGCGGAGTCACCTAGTGCAG", "55000 fluorescence intensity (a.u.)"),
    ("AGCCTAATTAATCCGTCATCAGCAAATGTTTATTGTAGCACGGAGTCACCTAGTGCAG", "29700 fluorescence intensity (a.u.)"),
    ("ATGATAGATTAAATCAAATTATCATGTTATGGGTATAGCCCGGAGTCACCTAGTGCAG", "53200 fluorescence intensity (a.u.)"),
    ("CATTATAGATTAATACATTTTGGGATGGAGGGAGTACTCACGGAGTCACCTAGTGCAG", "3200 fluorescence intensity (a.u.)"),
    ("TTAACTGATTGATGCTCAAGTGGATTGATCGATTTTGTTGCGGAGTCACCTAGTGCAG", "65500 fluorescence intensity (a.u.)"),
]

====

Target: OsWOX13 (Oryza sativa, UniProt Q5QMM3 1-267)
Sequence: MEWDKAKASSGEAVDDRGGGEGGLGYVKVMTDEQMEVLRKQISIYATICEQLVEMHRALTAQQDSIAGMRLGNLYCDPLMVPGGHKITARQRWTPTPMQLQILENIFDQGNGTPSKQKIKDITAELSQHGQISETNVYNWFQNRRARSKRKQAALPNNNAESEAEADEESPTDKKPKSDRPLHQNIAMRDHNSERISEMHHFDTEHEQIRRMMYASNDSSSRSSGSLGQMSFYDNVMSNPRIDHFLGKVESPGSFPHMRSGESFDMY
Test: protein-binding microarray (RPBM); PBS, 2% BSA, 51.3 ng/ul salmon testes DNA, 50 uM zinc acetate, 200 nM TF, 25 C, 1 h; high values mean tight binding
Details: protein: recombinant; tags: N-terminal polyhistidine and DsRed monomer fusion (pET32a); label: CyDye5-dUTP incorporated in the synthesized complementary strand; 3' TTTTT single-stranded linker to array surface; dsDNA, one strand shown
Over roughly 35,000 sequences, “fluorescence intensity (a.u.)” has its median near 10,000; the highest 2% begin near 52,000. This is one part of a sample in which the highest values are shown more often than they occur.
binding signal values by entry

# RESIDUES, binding signal
data = [
    ("TAAGCCTAATTAATTTGTCATTAGCAAATGTTTACTATAGCGGAGTCACCTAGTGCAG", "30300 fluorescence intensity (a.u.)"),
    ("AGCCTAATTAATTTGTCATTAGCAAATGTTTACTGTAGCACGGAGTCACCTAGTGCAG", "57000 fluorescence intensity (a.u.)"),
    ("TCTAATTAATTTGTCATTAGCAAATGTTTATTGTAGCATCCGGAGTCACCTAGTGCAG", "58400 fluorescence intensity (a.u.)"),
    ("TGAAATGTAATTGTGATTTTATCTTGAAATGATCCGATGGCGGAGTCACCTAGTGCAG", "31400 fluorescence intensity (a.u.)"),
    ("TACCGATAATTTGTTATAGATCCCTAGACGTACATTCCTCCGGAGTCACCTAGTGCAG", "19900 fluorescence intensity (a.u.)"),
    ("CTCCTTAATTTACTTATTTGTCTTTAATTGGTTCTCGCACCGGAGTCACCTAGTGCAG", "33700 fluorescence intensity (a.u.)"),
    ("ATGGGTGATTAATCCTAGAATAATGTATCTAGACAGAATCCGGAGTCACCTAGTGCAG", "4120 fluorescence intensity (a.u.)"),
    ("GTTGTACCACTGATTGGACTGCCTGCTTACCGATAATTAACGGAGTCACCTAGTGCAG", "24500 fluorescence intensity (a.u.)"),
    ("ATTTCAGATTGGGTTATTTGAGAGCTAAATTTCTAATGTACGGAGTCACCTAGTGCAG", "4680 fluorescence intensity (a.u.)"),
    ("CCTAATTAATCTGTCATTAGCAAATATTTATTGTAGCATCCGGAGTCACCTAGTGCAG", "47000 fluorescence intensity (a.u.)"),
    ("CTCTTGATTGTATCCTTAGGCACTTTGTATATTCTCGAGTCGGAGTCACCTAGTGCAG", "31700 fluorescence intensity (a.u.)"),
    ("CTTAATGTATGTTGATTTGTCATCACATGTATGATTAGGGCGGAGTCACCTAGTGCAG", "56400 fluorescence intensity (a.u.)"),
    ("CTTGATTAGAATGTTTAATAACTTGTATCCGTCATGCCTGCGGAGTCACCTAGTGCAG", "60200 fluorescence intensity (a.u.)"),
    ("AGTCAGATGCTCATAATTGAAAGAAATGCTAGGGCCTGAACGGAGTCACCTAGTGCAG", "15200 fluorescence intensity (a.u.)"),
    ("GTGATAATGTCCATCAATCTAGCAAATCATTCTCACAACGCGGAGTCACCTAGTGCAG", "26800 fluorescence intensity (a.u.)"),
    ("CTTAAAACAAATGATTGTTTACGTTCCGTCAATCATGCCCCGGAGTCACCTAGTGCAG", "21200 fluorescence intensity (a.u.)"),
    ("AATTAATTTGTCATTAGTAAATGTTTACTGTAGCACCACACGGAGTCACCTAGTGCAG", "42000 fluorescence intensity (a.u.)"),
    ("ATCCGATTAATTAATTTGATTTAATGTAATGTAATTAGGGCGGAGTCACCTAGTGCAG", "64600 fluorescence intensity (a.u.)"),
    ("ATTACGTAATTAATTAAAATACAAATTTCAGCATCCTTACCGGAGTCACCTAGTGCAG", "42300 fluorescence intensity (a.u.)"),
]

Where these numbers come from: paper PMC7819943
